System: A-427
Test: relative viability (nuclei count vs DMSO), 5 days (fraction); higher = more cells survive
Settings: first compound 15.81 µM
// assign Satisfied if relative viability falls strictly below 0.6, else Not satisfied (ties count as Not satisfied)

[in] Does the reported relative viability of O=C(O)CCCCC(CCSCc1ccccc1)SCc1ccccc1 (stereo unspecified) [CPI-613] + Cc1cc(Nc2cc(N3CCN(C)CC3)nc(Sc3ccc(NC(=O)C4CC4)cc3)n2)n[nH]1 [Tozasertib] (partner 0.1 µM) stay below 0.6?
[out] Satisfied

[in] Now try O=C(O)CCCCC(CCSCc1ccccc1)SCc1ccccc1 (stereo unspecified) [CPI-613] + C[C@]1(O)C[C@@H](c2nc(-c3ccc4ccc(-c5ccccc5)nc4c3)c3c(N)nccn32)C1 [Linsitinib] (partner 1 µM) .
[out] Not satisfied

[in] Now try O=C(O)CCCCC(CCSCc1ccccc1)SCc1ccccc1 (stereo unspecified) [CPI-613] + O=C(CCCCCCC(=O)Nc1ccccc1)NO [Vorinostat] (partner 1 µM) .
[out] Not satisfied

Recorded values, source the supplement of paper PMC10307832.
